Tested on: LC-2-ad
Experiment: relative viability (nuclei count vs DMSO), 5 days (fraction); higher = more cells survive
Conditions: first compound 0.08 µM
endpoint: relative viability

[[record]]
molecule = "COc1nc(C)cnc1NS(=O)(=O)c1cccnc1-c1ccc(-c2nnco2)cc1 [Zibotentan] + Cc1nc(Nc2ncc(C(=O)Nc3c(C)cccc3Cl)s2)cc(N2CCN(CCO)CC2)n1 [Dasatinib] (partner 0.075 µM)"
endpoint = "relative viability"
experimental_value = 0.688

[[record]]
molecule = "COc1nc(C)cnc1NS(=O)(=O)c1cccnc1-c1ccc(-c2nnco2)cc1 [Zibotentan] + O=C(c1cc(Cc2n[nH]c(=O)c3ccccc23)ccc1F)N1CCN(C(=O)C2CC2)CC1 [Olaparib] (partner 8 µM)"
endpoint = "relative viability"
experimental_value = 0.68

[[record]]
molecule = "O=c1cc(-c2cccc3c2Sc2ccccc2S3)oc(N2CCOCC2)c1 + Cc1nc(NC(=O)N2CCC[C@H]2C(N)=O)sc1-c1ccnc(C(C)(C)C(F)(F)F)c1 [Alpelisib] (partner 2 µM)"
endpoint = "relative viability"
experimental_value = 0.884

[[record]]
molecule = "O=c1cc(-c2cccc3c2Sc2ccccc2S3)oc(N2CCOCC2)c1 + N=C(N)NC(=N)NCCc1ccccc1 [Phenformin] (partner 250 µM)"
endpoint = "relative viability"
experimental_value = 0.557

[[record]]
molecule = "COc1nc(C)cnc1NS(=O)(=O)c1cccnc1-c1ccc(-c2nnco2)cc1 [Zibotentan] + COc1cccc2cc(-c3nc([C@H]4CC[C@H](C(=O)O)CC4)n4ncnc(N)c34)[nH]c12 [OSI-027] (partner 0.5 µM)"
endpoint = "relative viability"
experimental_value = 0.817

[[record]]
molecule = "COc1nc(C)cnc1NS(=O)(=O)c1cccnc1-c1ccc(-c2nnco2)cc1 [Zibotentan] + CC(=O)c1c(C)c2cnc(Nc3ccc(N4CCNCC4)cn3)nc2n(C2CCCC2)c1=O [Palbociclib] (partner 0.5 µM)"
endpoint = "relative viability"
experimental_value = 0.489

[[record]]
molecule = "COc1nc(C)cnc1NS(=O)(=O)c1cccnc1-c1ccc(-c2nnco2)cc1 [Zibotentan] + CS(=O)(=O)N1CCN(Cc2cc3nc(-c4cccc5[nH]ncc45)nc(N4CCOCC4)c3s2)CC1 [Pictilisib] (partner 1 µM)"
endpoint = "relative viability"
experimental_value = 0.48

